This collection of values is drawn from the supplement of paper PMC10567573.

B1: PKD2L1 (parent)
chain: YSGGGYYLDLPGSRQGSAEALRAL

variants of: B1; experiment: protein stability index of a GFP-peptide fusion (GPS, HEK-293T) (PSI 1-6); higher = more stable; settings: c terminus: a fixed tail appended;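 further: lentivirally expressed fusions sorted by FACS into six bins by GFP to DsRed ratio, PSI derived from sequencing read proportions per bin multiplied by bin number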
Recorded endpoint: protein stability index
Returns: the value as a bare number; no unit string appended.

{"Variant designation": "Y1K", "protein stability index": 3.16}
{"Variant designation": "S2V", "protein stability index": 3.97}
{"Variant designation": "Y6H", "protein stability index": 2.16}
{"Variant designation": "G5Q", "protein stability index": 1.39}
{"Variant designation": "A18N", "protein stability index": 1.86}
{"Variant designation": "Y6T", "protein stability index": 2.75}

Using the record for G4C , report its protein stability index.
1.95

Using the record for S13R , report its protein stability index.
2.38
